Could you please report measured IC50 for the items listed next?
experimental_target: NSP14 (Severe acute respiratory syndrome coronavirus 2)
assay_details: NSP14 MTase inhibition assay at 37° C. (MTase-Glo SAH detection)
Format: biochemical, SARS-CoV-2
settings: 37° C., 0.3 nM NSP14, 2.5 μM SAM, 2.5 μM GpppA RNA; read-out: Nsp14 Mtase Inh. IC50
Give just the number in pM; leave the unit off.

Return reported IC50; argument: Cc1c(S(=O)(=O)c2ccc3[nH]ncc3c2)cc(C(=O)NCc2c[nH]c3ncccc23)n1C [B.132] 600

Return reported IC50; argument: Cc1c(S(=O)(=O)c2ccc3c(c2)c(O)nn3C)cc(C(=O)NCc2c(F)ccc3cnn(C4CC4)c23)n1C [B.111] 142000

Return reported IC50; argument: Cc1c(S(=O)(=O)c2ccc(C3CC3)cc2)cc(C(=O)NCc2cccc3cnn(C)c23)n1C [B.7] 114000

Return reported IC50; argument: Cc1c(S(=O)(=O)c2ccc3[nH]ncc3c2)cc(C(=O)NCc2cccc3ccc(=O)n(C)c23)n1C [B.11] 2100

Return reported IC50; argument: Cc1c(S(=O)(=O)c2ccc3[nH]nc(F)c3c2)cc(C(=O)NCc2cccc3c(F)nn(C4CC4)c23)n1C [B.80] 1500

Return reported IC50; argument: Cc1c(S(=O)(=O)c2ccc3[nH]ncc3c2)cc(C(=O)NCc2nccc3cnn(C4CC4)c23)n1C [B.118] 480

Return reported IC50; argument: Cc1c(S(=O)(=O)c2ccc3[nH]ncc3c2)cc(C(=O)NCc2cccc3c2N(C)C(=O)C3(F)F)n1C [B.26] 490

Return reported IC50; argument: Cc1cc(S(=O)(=O)c2cc(C(=O)NCc3c(F)ccc4cnn(C5CC5)c34)n(C)c2C)cc2cn[nH]c12 [B.28] 240

Return reported IC50; argument: Cc1c(S(=O)(=O)c2ccc3[nH]ncc3c2)cc(C(=O)NC2CCc3cc(C(F)(F)F)ccc32)n1C (racemic) [B.71] 36000

Return reported IC50; argument: Cc1c(S(=O)(=O)c2ccc3[nH]ncc3c2)cc(C(=O)NCc2c(Cl)cc[nH]c2=O)n1C [B.187] 610

Return reported IC50; argument: Cc1c(S(=O)(=O)c2ccc3[nH]ncc3c2)cc(C(=O)NCc2c(F)cccc2F)n1C [B.22] 230

Return reported IC50; argument: Cc1c(S(=O)(=O)c2ccc3[nH]ncc3c2)cc(C(=O)NCc2ccnn2C2CC2)n1C [B.167] 7800

Return reported IC50; argument: Cc1c(S(=O)(=O)c2ccc3[nH]ncc3c2)cc(C(=O)NCc2nccn2C)n1C [B.131] 79000

* * *

experimental_target: NSP14 (Severe acute respiratory syndrome coronavirus 2, UniProt P0DTD1)
assay_details: NSP14 MTase inhibition assay at 37° C. (MTase-Glo SAH detection)
Type: biochemical, SARS-CoV-2
settings: 0.3 nM NSP14, 2.5 μM SAM, 2.5 μM GpppA RNA, 45 min at 37° C.; read-out: Nsp14 Mtase Inh. IC50
pIC50: −log10 of the molar value.
Output 1 for pIC50 not less than 9; output 0 otherwise.

Is it the case that Cc1c(S(=O)(=O)c2ccc3[nH]ncc3c2)cc(C(=O)N[C@@H]2CCN(c3ccc(C#N)c(C#N)c3)C2)n1C [A.108] has pIC50 reaching or exceeding 9? 1

Is it the case that COCC1(NC(=O)c2cc(S(=O)(=O)c3ccc4[nH]ncc4c3)c(C)n2C)CCN(c2ncc(F)cn2)C1 (single isomer, unassigned) [A.115] has pIC50 reaching or exceeding 9? 0

Is it the case that Cc1c(S(=O)(=O)c2ccc3[nH]ncc3c2)cc(C(=O)N[C@@H]2CCN(c3nccc(C#N)n3)C2)n1C [A.45] has pIC50 reaching or exceeding 9? 1

Is it the case that Cc1c(S(=O)(=O)c2ccc3[nH]ncc3c2)cc(C(=O)N[C@@H]2CCN(c3ccn4nccc4c3)C2)n1C [A.60] has pIC50 reaching or exceeding 9? 1

Is it the case that Cc1c(S(=O)(=O)c2ccc3[nH]ncc3c2)cc(C(=O)N[C@@H]2CCN(c3cccc(C#N)c3)C2)n1C [A.84] has pIC50 reaching or exceeding 9? 1

Is it the case that Cc1c(S(=O)(=O)c2ccc3[nH]ncc3c2)cc(C(=O)N[C@@H]2CCN(c3cnc(F)cn3)C2)n1C [A.50] has pIC50 reaching or exceeding 9? 1

Is it the case that Cc1c(S(=O)(=O)c2cc(Cl)c3[nH]ncc3c2)cc(C(=O)N[C@@H]2CCN(c3ccc(C#N)cn3)C2)n1C [A.106] has pIC50 reaching or exceeding 9? 1

Is it the case that Cc1c(S(=O)(=O)c2ccc3[nH]ncc3c2)cc(C(=O)NC2CN(c3ncc(F)cn3)C2)n1C [A.36] has pIC50 reaching or exceeding 9? 0

Is it the case that Cc1c(S(=O)(=O)c2ccncc2)cc(C(=O)NCc2cccc3cnn(C)c23)n1C [A.27] has pIC50 reaching or exceeding 9? 0

Is it the case that Cc1c(S(=O)(=O)c2ccc3c(cnn3C)c2)cc(C(=O)NCc2c(F)ccc3occc23)n1C [A.19] has pIC50 reaching or exceeding 9? 0

Is it the case that Cc1c(S(=O)(=O)c2cccc(Cl)c2)cc(C(=O)NCc2cccc3cnn(C)c23)n1C [A.9] has pIC50 reaching or exceeding 9? 0

Is it the case that COc1ccc(N2CC[C@@H](NC(=O)c3cc(S(=O)(=O)c4ccc5[nH]ncc5c4)c(C)n3C)C2)nn1 [A.88] has pIC50 reaching or exceeding 9? 1

Is it the case that Cc1c(S(=O)(=O)c2ccc3[nH]ncc3c2)cc(C(=O)N[C@@H]2CCN(c3ncncc3C#N)C2)n1C [A.121] has pIC50 reaching or exceeding 9? 1

Is it the case that Cc1c(S(=O)(=O)c2ccc3c(cnn3C)c2)cc(C(=O)NCc2c(F)ccc3cnn(C)c23)n1C [A.18] has pIC50 reaching or exceeding 9? 0

Is it the case that COc1ccccc1CNC(=O)c1cc(S(=O)(=O)c2ccc3c(cnn3C)c2)c(C)n1C [A.23] has pIC50 reaching or exceeding 9? 0

Is it the case that Cc1c(S(=O)(=O)c2ccccc2)cc(C(=O)NCc2c(F)ccc3cnn(C4CC4)c23)n1C [A.10] has pIC50 reaching or exceeding 9? 0

Is it the case that Cc1c(S(=O)(=O)c2ccc3[nH]ncc3c2)cc(C(=O)N[C@@H]2CCN(c3cccc(C#N)c3C#N)C2)n1C [A.109] has pIC50 reaching or exceeding 9? 1

Is it the case that Cc1c(S(=O)(=O)c2ccc(F)cc2)cc(C(=O)NCc2cccc3cnn(C)c23)n1C [A.17] has pIC50 reaching or exceeding 9? 0

Is it the case that Cc1c(S(=O)(=O)c2ccccc2)cc(C(=O)NCc2cccnc2N2CCCC2)n1C [A.22] has pIC50 reaching or exceeding 9? 0

Is it the case that Cc1c(S(=O)(=O)c2ccc3[nH]nc(F)c3c2)cc(C(=O)N[C@@H]2CCN(c3ncc(F)cn3)C2)n1C [A.39] has pIC50 reaching or exceeding 9? 1

Is it the case that Cc1c(S(=O)(=O)c2ccc3[nH]ncc3c2)cc(C(=O)N[C@@H]2CCN(c3ccc(F)nn3)C2)n1C [A.53] has pIC50 reaching or exceeding 9? 1

Is it the case that Cc1c(S(=O)(=O)c2ccc3[nH]ncc3c2)cc(C(=O)N[C@@H]2CCN(c3cnnc(Cl)c3)C2)n1C [A.118] has pIC50 reaching or exceeding 9? 1

Is it the case that Cc1c(S(=O)(=O)c2ccc(=O)n(C)c2)cc(C(=O)NCc2cccc3cnn(C)c23)n1C [A.15] has pIC50 reaching or exceeding 9? 0

Is it the case that CN=S(=O)(c1ccc2[nH]ncc2c1)c1cc(C(=O)N[C@@H]2CCN(c3ncc(F)cn3)C2)n(C)c1C (stereo partly drawn) [A.70] has pIC50 reaching or exceeding 9? 0

Is it the case that Cc1c(S(=O)(=O)c2ccc3[nH]ncc3c2)cc(C(=O)N[C@@H]2CCN(c3cccn4nccc34)C2)n1C [A.59] has pIC50 reaching or exceeding 9? 1

* * *

Could you please report measured log10(IC50) for the items listed next?
experimental_target: NSP14 (Severe acute respiratory syndrome coronavirus 2, UniProt P0DTD1)
assay_details: NSP14 MTase inhibition assay at 37° C. (MTase-Glo SAH detection)
Type: biochemical, SARS-CoV-2
settings: 37° C., 0.3 nM NSP14, 2.5 μM SAM, 2.5 μM GpppA RNA; read-out: Nsp14 Mtase Inh. IC50
Use the decimal logarithm of IC50 (nM).

Could you share what log10(IC50) was measured for Cc1c(S(=O)(=O)c2ccc3[nH]ncc3c2)cc(C(=O)NCc2cccc3c(F)n[nH]c23)n1C , tested on NSP14 (Severe acute respiratory syndrome coronavirus 2, UniProt P0DTD1)? 0.73

Could you share what log10(IC50) was measured for Cc1c(S(=O)(=O)c2ccc3[nH]ncc3c2)cc(C(=O)NCc2c(F)cncc2F)n1C , tested on NSP14 (Severe acute respiratory syndrome coronavirus 2, UniProt P0DTD1)? -0.92

Could you share what log10(IC50) was measured for Cc1c(S(=O)(=O)c2ccc3[nH]ncc3c2)cc(C(=O)NCCCOc2ncc(F)cn2)n1C , tested on NSP14 (Severe acute respiratory syndrome coronavirus 2, UniProt P0DTD1)? 1.26

Could you share what log10(IC50) was measured for Cc1c(S(=O)(=O)c2ccc3[nH]nc(F)c3c2)cc(C(=O)NCc2cccc3cnn(C)c23)n1C , tested on NSP14 (Severe acute respiratory syndrome coronavirus 2, UniProt P0DTD1)? -0.20

Could you share what log10(IC50) was measured for Cc1c(S(=O)(=O)c2cc(C(F)F)c3[nH]ncc3c2)cc(C(=O)NCc2cccc3cnn(C4CC4)c23)n1C , tested on NSP14 (Severe acute respiratory syndrome coronavirus 2, UniProt P0DTD1)? 0.72

Could you share what log10(IC50) was measured for Cc1c(S(=O)(=O)c2ccc3[nH]ncc3c2)cc(C(=O)NCc2ccc3ncnn3c2)n1C , tested on NSP14 (Severe acute respiratory syndrome coronavirus 2, UniProt P0DTD1)? 1.26

Could you share what log10(IC50) was measured for Cc1c(S(=O)(=O)c2ccc3[nH]ncc3c2)cc(C(=O)NCc2cccc3c2N(C)C(=O)C3)n1C , tested on NSP14 (Severe acute respiratory syndrome coronavirus 2, UniProt P0DTD1)? -0.22

Could you share what log10(IC50) was measured for Cc1c(S(=O)(=O)c2ccc3[nH]ncc3c2Cl)cc(C(=O)NCc2c(F)ccc3c2N(C)C(=O)C32CC2)n1C , tested on NSP14 (Severe acute respiratory syndrome coronavirus 2, UniProt P0DTD1)? -0.40
